# targetOrTestSystem: MARK1 (human) (UniProt Q9P0L2)
# Sequence (Q9P0L2 whole entry, looked up): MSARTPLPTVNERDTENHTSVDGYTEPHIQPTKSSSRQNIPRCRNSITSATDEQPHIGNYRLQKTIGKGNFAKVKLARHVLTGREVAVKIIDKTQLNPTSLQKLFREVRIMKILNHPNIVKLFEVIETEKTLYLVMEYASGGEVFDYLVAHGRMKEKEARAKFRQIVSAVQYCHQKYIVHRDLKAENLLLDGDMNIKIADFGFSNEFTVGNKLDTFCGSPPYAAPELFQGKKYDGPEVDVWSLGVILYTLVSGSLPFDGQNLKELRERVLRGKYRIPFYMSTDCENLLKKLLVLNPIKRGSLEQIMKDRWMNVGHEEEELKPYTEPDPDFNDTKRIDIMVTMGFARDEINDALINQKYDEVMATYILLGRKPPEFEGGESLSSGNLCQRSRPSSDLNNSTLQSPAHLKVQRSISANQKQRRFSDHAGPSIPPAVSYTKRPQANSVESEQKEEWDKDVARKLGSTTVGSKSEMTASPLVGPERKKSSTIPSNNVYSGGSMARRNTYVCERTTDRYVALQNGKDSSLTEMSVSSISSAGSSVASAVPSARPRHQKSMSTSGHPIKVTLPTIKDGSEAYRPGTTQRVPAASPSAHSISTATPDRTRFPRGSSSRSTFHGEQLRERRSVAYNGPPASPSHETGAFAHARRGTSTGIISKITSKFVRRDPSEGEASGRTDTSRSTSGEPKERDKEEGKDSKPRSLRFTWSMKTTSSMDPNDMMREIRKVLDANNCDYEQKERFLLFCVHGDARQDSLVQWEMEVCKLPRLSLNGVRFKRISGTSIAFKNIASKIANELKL
# test: radiometric filter-binding kinase assay
# conditionSet: compound 0.1 µM
measureName: residual activity (%)

[[record]]
compound = "Cc1cc(NC(=O)c2cccc(NC(=O)/C=C/CN(C)C)c2)ccc1Nc1nccc(-c2cccnc2)n1"
readoutunits = "%"
recordedresult = 114

[[record]]
compound = "CCCCCc1ccc(/C=C/[C@H](O)[C@@H](CO)NC)cc1"
readoutunits = "%"
recordedresult = 114

[[record]]
compound = "C=CC(=O)N1CCC[C@@H](n2nc(-c3ccc(Oc4ccccc4)cc3)c3c(N)ncnc32)C1"
readoutunits = "%"
recordedresult = 101

[[record]]
compound = "Cc1cccc(-c2nn(C(=S)Nc3ccccc3)cc2-c2ccnc3ccccc23)n1"
readoutunits = "%"
recordedresult = 107

[[record]]
compound = "Cc1ccc(Sc2cnc(Nc3cccc(Br)n3)s2)cc1C(=O)N1CCN(C(=O)CN)CC1"
readoutunits = "%"
recordedresult = 70

[[record]]
compound = "Cc1ccc(-c2ccc3c(ccc4sc5c(c43)NC[C@@H](C)NC5=O)n2)cn1"
readoutunits = "%"
recordedresult = 116

[[record]]
compound = "c1ccc2c(-c3cnn4cc(-c5ccc(N6CCNCC6)cc5)cnc34)ccnc2c1"
readoutunits = "%"
recordedresult = 88

[[record]]
compound = "COc1cc(O)c2c(c1)[C@H]1OC1C[C@H](O)[C@H](O)C(=O)/C=C\\C[C@H](C)OC2=O (some centres undefined)"
readoutunits = "%"
recordedresult = 99

[[record]]
compound = "CC1=C(CO)C(=O)O[C@@H]([C@@H](C)[C@H]2CC[C@H]3[C@@H]4C[C@H]5O[C@]56[C@@H](O)C=CC(=O)[C@]6(C)C4CC[C@]23C)C1 (some centres undefined)"
readoutunits = "%"
recordedresult = 106

[[record]]
compound = "NC1(c2ccc(-c3nc4ccn5c(=O)[nH]nc5c4cc3-c3ccccc3)cc2)CCC1"
readoutunits = "%"
recordedresult = 113

[[record]]
compound = "COc1ccc(-n2ncc3cnc(Nc4cc(OC)c(OC)c(OCCCN5CCN(C)CC5)c4)nc32)cc1"
readoutunits = "%"
recordedresult = 63

[[record]]
compound = "NC(=O)c1cc2c(-c3cccc(-c4ccccc4)c3)cnc(N)c2s1"
readoutunits = "%"
recordedresult = 78

[[record]]
compound = "NC(=O)c1cc(-c2ccnc(NC3CCCCC3)c2)nc(N2CCNCC2)c1"
readoutunits = "%"
recordedresult = 51

[[record]]
compound = "COc1cc(O)c2c(c1)/C=C/C[C@H](O)[C@H](O)C(=O)/C=C\\C[C@H](C)OC2=O"
readoutunits = "%"
recordedresult = 112

[[record]]
compound = "O=C(NCCCNc1nc(Nc2cccc(CN3CCOCC3)c2)ncc1C1CC1)C1CCC1"
readoutunits = "%"
recordedresult = 16

[[record]]
compound = "CN1CCN(CCOc2cc(OC3CCOCC3)c3c(Nc4c(Cl)ccc5c4OCO5)ncnc3c2)CC1"
readoutunits = "%"
recordedresult = 101

[[record]]
compound = "CN(C)C/C=C/C(=O)Nc1cccc(C(=O)Nc2ccc(Nc3nccc(-c4cccnc4)n3)cc2)c1"
readoutunits = "%"
recordedresult = 91

[[record]]
compound = "O=C(Nc1nc2cc(C(F)(F)F)cc(NC3CC3)n2n1)c1cccnc1"
readoutunits = "%"
recordedresult = 90

[[record]]
compound = "CNC(=O)C1[C@H]2O[C@@](C)([C@@H]1N)n1c3ccccc3c3c4c(c5c6ccccc6n2c5c31)C(=O)NC4 (some centres undefined)"
readoutunits = "%"
recordedresult = 5

